experimental-protocol: human hepatoma cell viability loss – ATP luminescence, cytotoxicity control for P. falciparum antimalarial project, primary screen (AID 2303);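 note: 0% = DMSO wells and 100% = digitonin-killed cells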
condition: HepG2 viability, 24-48 h, at 10 µM, hits give high values
Readings of inhibition for the listed compounds
Numeric answer only, unit % assumed.

Observe how each entry below is paired with its result.
| compound | inhibition [%] |
| --- | --- |
| O=C(c1cc(C(=O)Nc2ccc(F)cc2)c(=O)n(-c2ccc(F)cc2)c1)c1cc(Cl)ccc1O | 13 |
| O=C(NCCNc1ccnc2cc(Cl)ccc12)c1ccccc1F | 30 |
| CC(=O)Nc1ccc(C(=O)Nc2ccc(-c3cccc(-c4nc5ccc(F)cc5[nH]4)c3)cc2)cn1 | 13 |
| COc1cccc(OC)c1CN1CCC(N(C)CCCCCCCCCN2CCC(OC(=O)Nc3ccccc3-c3ccccc3)CC2)CC1 | 100 |
| CC1(C)CCC(=Cc2ccc(Cl)cc2)CC1(O)Cn1ccnc1 (stereo not drawn) | 0 |
| Cc1c(C2CCN(CCCCNC(=O)c3ccc(-c4ccc(C#N)cc4)cc3)CC2)c2ccccc2n1CCO | 28 |
| COc1c(C2CCN(CCCCNC(=O)c3ccc(-c4ccc(C#N)cc4)cc3)CC2)ccc2c1C(C)(C)CCC2(C)C | 98 |
| O=C1C2=C(Nc3ccccc3SC2c2cccs2)c2ccccc21 (stereo not drawn) | 8 |
| C=CCc1cccc(C)c1OCCCON1C(N)=NC(N)=NC1(C)C | 65 |
| CCOC(=O)c1ccc(NC(=O)c2ccccc2C(=O)O)cc1 | 2 |

Task item: Which inhibition value belongs to Oc1cccc2c1CC(NCc1ccccc1)CC2 (stereo not drawn) ?
Reply: 4

Task item: Which inhibition value belongs to COc1ccc(-c2ccc(CNCc3ccc(F)cc3)cc2)cc1S(=O)(=O)NCCN1CCCC1 ?
Reply: 24

Task item: Which inhibition value belongs to Cc1cc(N(C)C)nc(Nc2ccc(NC(=O)c3cccc(F)c3)cc2)n1 ?
Reply: -8

Task item: Which inhibition value belongs to CCC(C)c1ccc(NC(=O)Nc2ccnc3ccccc23)cc1 (stereo not drawn) ?
Reply: 27

Task item: Which inhibition value belongs to COc1ccc2nccc([C@@H](O)CN3CCC(NCc4nc5ccccc5s4)CC3)c2c1 ?
Reply: 8

Task item: Which inhibition value belongs to CC(C)Oc1cc2c(cc1NS(=O)(=O)c1ccc(-c3ccc(Cl)s3)cc1F)CCN(C)CC2 ?
Reply: 23

Task item: Which inhibition value belongs to CC(=O)Nc1cccc(-c2cnc(N)c3cc(-c4ccc5c(c4)OCO5)ccc23)c1 ?
Reply: 100

Task item: Which inhibition value belongs to COc1ccc(C(=O)N[C@@H](CC(C)C)C(=O)NC2CC[C@@H](C)N(C(=O)Nc3ccc(Cl)cc3)CC2=O)cc1OCCN1CCOCC1 (stereo partly drawn) ?
Reply: 5

Task item: Which inhibition value belongs to CC1=C(C(=O)Nc2ccccc2)C(c2ccc([N+](=O)[O-])cc2)n2ncc(C(=O)Nc3ccccc3)c2N1 (stereo not drawn) ?
Reply: 9

Task item: Which inhibition value belongs to O=S(=O)(c1ccc(OCc2ccc(Cl)cc2)cc1)c1cc2c(cc1O)CCN(C1CCC1)CC2 ?
Reply: 11

Task item: Which inhibition value belongs to CCc1cccc2sc(N3CCN(C(=O)c4ccc([N+](=O)[O-])o4)CC3)nc12 ?
Reply: 2

Task item: Which inhibition value belongs to Cc1cccc2[nH]c(-c3ccc(-c4cccc(NC(=O)Nc5ccsc5)c4)cc3)nc12 ?
Reply: 24

Task item: Which inhibition value belongs to O=C(Nc1ccc(F)cc1F)NC1CCN(CCCCCNC(=O)[C@@H]2C[C@H]2c2ccc(Cl)c(Cl)c2)CC1 ?
Reply: 41
